- Test system: velvetleaf (Abutilon theophrasti)
- PROTOCOL_DETAILS: Test A pre-/postemergence greenhouse herbicide test, visual injury rating 0-100
- Format: in vivo
- EXPERIMENTAL_PARAMETERS: Preemergence, 1000 g ai/ha
READOUT_TYPE: Plant response rating (0 to 100 scale), Velvetleaf
Form field (numeric): enter value without unit.

Solved entries:
Brc1cc(Br)cc(-c2n[nH]cc2C2(c3ccccc3)SCCS2)c1 [Compound 62] : 60
Cn1cc(C(=O)c2ccccc2)c(-c2cc(Cl)c(Cl)c(Cl)c2)n1 [Compound 11] : 70

Q: Give Plant response rating (0 to 100 scale), Velvetleaf for CON=C(c1ccccc1)c1c[nH]nc1-c1cc(Cl)cc(Cl)c1 [Compound 64]
Ans: 0

Q: Give Plant response rating (0 to 100 scale), Velvetleaf for CON=C(c1ccccc1)c1c[nH]nc1-c1cc(Br)cc(Br)c1 [Compound 29]
Ans: 70

Q: Give Plant response rating (0 to 100 scale), Velvetleaf for CC(=O)n1cc(C(=O)c2cncc(F)c2)c(-c2cc(Cl)cc(Cl)c2)n1 [Compound 20]
Ans: 80

----------
- System: velvetleaf (Abutilon theophrasti)
- PROTOCOL_DETAILS: Test C pre-/postemergence greenhouse test, plant response rating 0-100
- Format: in vivo
- EXPERIMENTAL_PARAMETERS: Postemergence, 62 g ai/ha
READOUT_TYPE: Plant response rating (0 to 100), Velvetleaf
Form field (numeric): enter value without unit.

Solved entries:
Fc1ccc(NN=C(c2ccccc2)c2c[nH]nc2-c2cc(Cl)cc(Cl)c2)cc1 : 60
Fc1ccccc1NN=C(c1ccccc1)c1c[nH]nc1-c1cc(Cl)cc(Cl)c1 : 70
CCOC(OCC)(c1cccs1)c1c[nH]nc1-c1cc(Cl)cc(Cl)c1 : 65
CC(C)n1cc(C(=O)c2ccccc2)c(-c2cc(Cl)cc(Cl)c2)n1 : 60

Please look at the following molecule next.
Q: Give Plant response rating (0 to 100), Velvetleaf for "C=CCn1cc(C(=O)c2ccccc2)c(-c2cc(Cl)cc(Cl)c2)n1"
Ans: 70

----------
- System: wild poinsettia (Euphorbia heterophylla)
- PROTOCOL_DETAILS: Test E pre-/postemergence greenhouse test, plant response rating 0-100
- Type: in vivo
- EXPERIMENTAL_PARAMETERS: Postemergence, 31 g ai/ha; scale 0 to 100
READOUT_TYPE: Plant response rating, Poinsettia, Wild
Form field (numeric): enter value without unit.

Solved entries:
O=C(c1ccccc1)c1cn(S(=O)(=O)CC(F)(F)F)nc1-c1cc(Cl)cc(Cl)c1 [Compound 3] : 0
Cn1cc(C(=O)c2cccs2)c(-c2cc(Cl)cc(Cl)c2)n1 [Compound 17] : 0
CCn1cc(C(=O)c2cccs2)c(-c2cc(Cl)cc(Cl)c2)n1 [Compound 18] : 5

Please look at the following compound next.
Q: Give Plant response rating, Poinsettia, Wild for Fc1cccc(NN=C(c2ccccc2)c2c[nH]nc2-c2cc(Cl)cc(Cl)c2)c1 [Compound 58]
Ans: 0

----------
- Tested on: pigweed (Amaranthus retroflexus)
- PROTOCOL_DETAILS: Test A pre-/postemergence greenhouse herbicide test, visual injury rating 0-100
- Type: in vivo
- EXPERIMENTAL_PARAMETERS: Postemergence, 500 g ai/ha
READOUT_TYPE: Plant response rating (0 to 100 scale), Pigweed
Form field (numeric): enter value without unit.

Solved entries:
O=C(c1ccccc1)c1cn(CC(F)F)nc1-c1cc(Cl)cc(Cl)c1 : 80
Clc1cc(Cl)cc(-c2n[nH]cc2C2(c3ccccc3)SCCS2)c1 : 80
C#CCn1cc(C(=O)c2cccnc2)c(-c2cc(Cl)cc(Cl)c2)n1 : 80
Cn1cc(C(=O)c2cccnc2)c(-c2cc(Cl)cc(Cl)c2)n1 : 30
O=C(c1cncc(F)c1)c1c[nH]nc1-c1cc(F)cc(Cl)c1 : 100

Q: Give Plant response rating (0 to 100 scale), Pigweed for "CC(=O)Cn1cc(C(=O)c2ccccc2)c(-c2cc(Cl)cc(Cl)c2)n1"
Ans: 60

Q: Give Plant response rating (0 to 100 scale), Pigweed for "CCn1cc(C(=NN2CCCC2)c2ccccc2)c(-c2cc(Cl)cc(Cl)c2)n1"
Ans: 100

Q: Give Plant response rating (0 to 100 scale), Pigweed for "Clc1cc(Cl)cc(-c2n[nH]cc2C2(c3ccccc3)SCCCS2)c1"
Ans: 80

Q: Give Plant response rating (0 to 100 scale), Pigweed for "O=C(c1ccccc1)c1cn(CC2CC2)nc1-c1cc(Cl)cc(Cl)c1"
Ans: 60

----------
- Tested on: sandbur (southern sandbur, Cenchrus echinatus)
- PROTOCOL_DETAILS: Test E pre-/postemergence greenhouse test, plant response rating 0-100
- Format: in vivo
- EXPERIMENTAL_PARAMETERS: Preemergence, 250 g ai/ha, scale 0 to 100
Parameter: Sandbur plant response rating. Scope: all listed entries.

Solved entries:
COCC(=O)n1cc(C(=O)c2ccccc2)c(-c2cc(Cl)cc(Cl)c2)n1 : 0
O=C(c1ccccc1)c1cn(CO)nc1-c1cc(Cl)cc(Cl)c1 : 40
C#CCn1cc(C(=O)c2ccccc2)c(-c2cc(Cl)cc(Cl)c2)n1 : 0

Please look at the following compound next.
Q: Give Sandbur plant response rating for "O=C(c1ccccc1)c1cn(S(=O)(=O)CCl)nc1-c1cc(Cl)cc(Cl)c1"
Ans: 20

----------
- System: chickweed (common chickweed, Stellaria media)
- PROTOCOL_DETAILS: Test C postemergence greenhouse test, plant response rating 0-100
- Type: in vivo
- EXPERIMENTAL_PARAMETERS: 62 g ai/ha
READOUT_TYPE: Plant response rating (0 to 100), Chickweed
Form field (numeric): enter value without unit.

Solved entries:
ON=C(c1ccccc1)c1c[nH]nc1-c1cc(Cl)cc(Cl)c1 : 95
Fc1ccc(NN=C(c2ccccc2)c2c[nH]nc2-c2cc(Cl)cc(Cl)c2)cc1 : 98

Q: Give Plant response rating (0 to 100), Chickweed for "Cn1cc(C(=NN2CCCC2)c2ccccc2)c(-c2cc(Cl)c(Cl)c(Cl)c2)n1"
Ans: 75

Q: Give Plant response rating (0 to 100), Chickweed for "Clc1cc(Cl)cc(-c2n[nH]cc2C(=NNc2ccccc2Cl)c2ccccc2)c1"
Ans: 100

Q: Give Plant response rating (0 to 100), Chickweed for "Fc1ccccc1NN=C(c1ccccc1)c1c[nH]nc1-c1cc(Cl)cc(Cl)c1"
Ans: 100

Q: Give Plant response rating (0 to 100), Chickweed for "O=C(c1cncc(F)c1)c1c[nH]nc1-c1cc(Cl)cc(Cl)c1"
Ans: 80

----------
Parameter: Plant response rating, Arrowleaf Sida. Scope: all listed entries.
- Test system: arrowleaf sida (Sida rhombifolia)
- PROTOCOL_DETAILS: Test E pre-/postemergence greenhouse test, plant response rating 0-100
- Format: in vivo
- EXPERIMENTAL_PARAMETERS: Postemergence, 125 g ai/ha; scale 0 to 100
Form field (numeric): enter value without unit.

Solved entries:
C=CCn1cc(C(=O)c2ccccc2)c(-c2cc(Cl)cc(Cl)c2)n1 : 45
ON=C(c1ccccc1)c1c[nH]nc1-c1cc(Cl)cc(Cl)c1 : 60
CCn1cc(C(=O)c2cccs2)c(-c2cc(Cl)cc(Cl)c2)n1 : 80

Please look at the following molecule next.
Q: Give Plant response rating, Arrowleaf Sida for "O=C(c1ccccc1)c1cn(S(=O)(=O)C(F)(F)F)nc1-c1cc(Cl)cc(Cl)c1"
Ans: 95

----------
- Test system: soybean (Glycine max)
- PROTOCOL_DETAILS: Test E pre-/postemergence greenhouse test, plant response rating 0-100
- Type: in vivo
- EXPERIMENTAL_PARAMETERS: Preemergence, 250 g ai/ha, scale 0 to 100
READOUT_TYPE: Soybean plant response rating
Form field (numeric): enter value without unit.

Solved entries:
Cn1cc(C(=O)c2ccccc2)c(-c2cc(Cl)cc(Cl)c2)n1 : 12
O=C(c1ccccc1)c1cn(S(=O)(=O)C(F)(F)F)nc1-c1cc(Cl)cc(Cl)c1 : 0
COCC(=O)n1cc(C(=O)c2ccccc2)c(-c2cc(Cl)cc(Cl)c2)n1 : 0

Please look at the following compound next.
Q: Consider the compound "O=C(c1ccccc1)c1cn(S(=O)(=O)CCl)nc1-c1cc(Cl)cc(Cl)c1" tested on soybean (Glycine max); state its Soybean plant response rating.
Ans: 0

----------
- Test system: morningglory (Ipomoea coccinea)
- PROTOCOL_DETAILS: Test C pre-/postemergence greenhouse test, plant response rating 0-100
- Assay type: in vivo
- EXPERIMENTAL_PARAMETERS: Ipomoea, pre-emergence; Preemergence, 62 g ai/ha; read-out: Plant response rating, Morningglory
Parameter: pest or weed control at 62 g/ha. Scope: all listed entries.
Numeric only. Scale: %

Solved entries:
Cn1cc(C(=O)c2ccccc2)c(-c2cc(Cl)cc(Cl)c2)n1 : 0
Clc1cc(Cl)cc(-c2n[nH]cc2C(=NN2CCCC2)c2ccccc2)c1 : 10
C#CCn1cc(C(=O)c2ccccc2)c(-c2cc(Cl)cc(Cl)c2)n1 : 20

Please look at the following molecule next.
Q: Consider the molecule "O=C(c1ccccc1)c1cn(CO)nc1-c1cc(Cl)cc(Cl)c1" tested on morningglory (Ipomoea coccinea); state its pest or weed control at 62 g/ha.
Ans: 0
